src = ChEMBL document CHEMBL1201862

Tested on: Hs-578T
Test: NCI tumour cell line growth inhibition, 48 h
The source made the active and inactive calls. Rule as the data show it: active = GI50 up to about 1.1 µM and inactive = higher.

COMPOUND: CCCN(CCCCC(NC(C)=O)C(=O)NCc1ccccc1)C(=O)N(CCCl)N=O (centres undefined)
GI50: 42.1 µM (inactive)
//
COMPOUND: CCOC(=O)[C@@H]1[C@@H](c2ccccc2)N(C)O[C@@]1(c1ccccc1)C(F)(F)F
GI50: > 100 µM (inactive)
//
COMPOUND: O=C1CC2(CCNCC2)C(=O)N1N1CCOCC1
GI50: > 100 µM (inactive)
//
COMPOUND: CC1(C)C[C@H](O)[C@H](O)[C@]23C(=O)O[C@H](O)[C@H]2C(C=O)=CC[C@@H]13
GI50: > 100 µM (inactive)

----------
System: SNB-78
Assay: NCI tumour cell line growth inhibition, 48 h
Activity calls are given as the source filed them. Cut-off read from the data, not from the text of the source: active = GI50 up to about 1.1 µM and inactive = higher.
Outcome codes: active, inactive

COMPOUND: COc1ccc(CNC2=C(NC(C)=O)C(=O)c3ccccc3C2=O)cc1
CATEGORY LABEL: inactive
//
COMPOUND: CC(=O)OC1COC(N2C(=O)/C(=N\Nc3ccc([N+](=O)[O-])cc3)c3cc(Br)c([N+](=O)[O-])cc32)C(OC(C)=O)C1OC(C)=O (stereo unspecified)
CATEGORY LABEL: inactive
//
COMPOUND: CC1CCC[P+](Cc2ccccc2)(c2ccccc2)CC1 (stereo unspecified)
CATEGORY LABEL: inactive
//
COMPOUND: CCn1cnnc1-c1nsc2ccccc12
CATEGORY LABEL: inactive
//
COMPOUND: C=C1CC2CC[C@@]34C[C@H]5O[C@@H]6C(O[C@H]7CC[C@H](CC(=O)OC8[C@H](C)C9OC%10C[C@]%11(C[C@@H]%12O[C@]%13(C[C@H](C)[C@@H]%14O[C@H]([C@H](O)C[C@H](O)CO)C[C@@H]%14O%13)C[C@H](C)[C@@H]%12O%11)OC%10CC9O[C@H]8C[C@H]8O[C@H](CC[C@@H]1O2)C[C@@H](C)C8=C)O[C@H]7[C@@H]6O3)[C@@H]5O4 (stereo partly specified)
CATEGORY LABEL: active
//
COMPOUND: CCOC(=O)Nc1cc2c(c(N)n1)N=C(c1ccccc1)[C@H](C)N2 [MIVOBULIN ISETHIONATE]
CATEGORY LABEL: active
//
COMPOUND: COc1cc(OC)c(OC)cc1/C=N/NC(=O)N/N=C/c1cc(OC)c(OC)cc1OC
CATEGORY LABEL: inactive
//
COMPOUND: CC(=O)N(C)c1ccc2ncccc2c1[N+](=O)[O-]
CATEGORY LABEL: inactive
//
COMPOUND: COc1ccc(NC(=O)c2cc(OC)c(OC)c(OC)c2)cc1
CATEGORY LABEL: inactive
//
COMPOUND: O=C(O/C(=C(/N=N/c1ccccc1)c1ccccc1)c1ccccc1)c1ccccc1
CATEGORY LABEL: inactive
//
COMPOUND: COc1ccc(/C=C2\CCC(C)(CN(C)C)C2=O)cc1OC (stereo unspecified)
CATEGORY LABEL: inactive
//
COMPOUND: Cc1ccc(NC(=O)C(=O)Cc2cc[n+]([O-])cc2)cc1
CATEGORY LABEL: inactive
//
COMPOUND: CCOCN1COCN(C)C1=O
CATEGORY LABEL: inactive
//
COMPOUND: Cc1ccc(/C=C/C(=O)C(C)(C)CN2CCCCC2)cc1
CATEGORY LABEL: inactive
//
COMPOUND: CC1CCN(c2cc(-c3cc4ccccc4o3)oc(=O)c2C#N)CC1
CATEGORY LABEL: inactive
//
COMPOUND: N#CCN1CCOCCOCCN(CC#N)CCOCCOCC1
CATEGORY LABEL: inactive
//
COMPOUND: CCOC(=O)C(C(=O)OCC)c1ccc([N+](=O)[O-])o1
CATEGORY LABEL: inactive
//
COMPOUND: CCc1cccc(CC)c1NC1=CC(=O)C(=O)c2ccccc21
CATEGORY LABEL: inactive
//
COMPOUND: O=[N+]([O-])c1cc(C(F)(F)F)cc2c1SC1=Nc3ccccc3CN12
CATEGORY LABEL: inactive
//
COMPOUND: COc1ccc(C#CCC(OC2OC(CO)C(O)C(O)C2O)C(O)c2ccc(OC)c(OC)c2)cc1OC (stereo unspecified)
CATEGORY LABEL: inactive
//
COMPOUND: C#CC1/C(=C\C(=O)OC)CCCC1O (stereo unspecified)
CATEGORY LABEL: inactive
//
COMPOUND: N/C(=N\O)N/N=C/c1ccc2c(c1)OCCO2
CATEGORY LABEL: inactive
//
COMPOUND: O=C1c2ccccc2-c2cccc3ccc(Cc4ccc5ccccc5c4)c1c23
CATEGORY LABEL: inactive
//
COMPOUND: Cc1ccc(N2C(=O)N(c3ccc(C)cc3)C3(SC=NN3C)C2=O)cc1 (stereo unspecified)
CATEGORY LABEL: inactive
//
COMPOUND: CCC(=O)C12OC3OC(C)(C)OC3C1OC(C)(C)O2 (stereo unspecified)
CATEGORY LABEL: inactive
//
COMPOUND: CCCN(CCCCC(NC(C)=O)C(=O)NCc1ccccc1)C(=O)N(CCCl)N=O (stereo unspecified)
CATEGORY LABEL: inactive
